Target: CYP1B1 (Homo sapiens)
Construct: expressed in transfected cells
Sequence (Q16678 1-543): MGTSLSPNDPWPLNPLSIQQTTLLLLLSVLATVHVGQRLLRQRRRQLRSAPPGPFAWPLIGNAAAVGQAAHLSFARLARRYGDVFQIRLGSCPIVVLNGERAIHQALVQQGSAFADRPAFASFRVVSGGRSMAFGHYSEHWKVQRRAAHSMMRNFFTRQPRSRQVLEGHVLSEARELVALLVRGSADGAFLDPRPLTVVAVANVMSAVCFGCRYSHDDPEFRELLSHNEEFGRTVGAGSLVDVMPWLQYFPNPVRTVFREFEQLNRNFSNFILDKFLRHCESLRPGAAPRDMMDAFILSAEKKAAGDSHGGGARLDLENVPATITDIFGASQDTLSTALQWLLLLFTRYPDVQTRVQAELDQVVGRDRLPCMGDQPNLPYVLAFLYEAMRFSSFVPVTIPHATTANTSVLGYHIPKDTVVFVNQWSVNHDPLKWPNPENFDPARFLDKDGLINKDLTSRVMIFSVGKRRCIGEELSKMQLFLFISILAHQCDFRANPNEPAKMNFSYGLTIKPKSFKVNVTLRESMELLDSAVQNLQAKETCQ
Test: EROD assay in inducible CYP1B1 cell line
Format: cell-based
Settings: Table 3; read-out: IC50 1B1
pIC50: −log10 of the molar value.
Class (required): determined from pIC50; valid ranges are class 0 (below 6), class 1 (6 to below 8), class 2 (8 or more)

1) COc1cc(/C=C/c2ccncn2)cc(OC)c1OC: class 1
2) O=C(NCCCOc1ccc(CCc2ccncn2)cc1)OCCOCCOCCOC(=O)NC12CC3CC(CC(C3)C1)C2: class 0
3) COc1cc(OC)c(/C=C/c2ccncn2)c(OC)c1: class 1
4) N#CCOc1nc(-c2ccc(Cl)cc2)nc2ccccc12: class 2
5) COc1cc(C(=O)/C=C/c2ccc3ccccc3n2)cc(OC)c1OC: class 1
6) c1ccc2nc(-c3nc4ccccc4[nH]3)ccc2c1: class 1
7) O=c1[nH]c(-c2ccccn2)nc2ccccc12: class 0
8) COc1ccc(-c2nc3ccc(I)cc3c(=O)[nH]2)c(OC)c1: class 1
9) O=c1[nH]c(-c2ccc(Cl)cc2)nc2ccccc12: class 1
10) Fc1ccc(-c2nc3ccccc3[nH]2)cc1: class 0
11) COc1cc(-c2nc3ccc(I)cc3c(=O)[nH]2)ccc1OCC#N: class 2
12) N#CCOc1nc(-c2ccc(OCCCN=[N+]=[N-])cc2)nc2ccccc12: class 1
13) Oc1nc(-c2ccc(F)cc2)nc2ccccc12: class 0
14) COc1ccc(-c2nc3ccccc3c(=O)[nH]2)cc1: class 2
15) COc1cc(-c2nc(OCC#N)c3ccccc3n2)ccc1OCC#N: class 2
16) N#CCOc1ccc(-c2nc(OCCCN)c3ccccc3n2)cc1: class 2
17) COc1ccc(/C=C/c2cc[n+](C)cn2)c(OC)c1.[I-]: class 0

###

Recorded pIC50 by entry
Molecular target: CYP1B1 (Homo sapiens, UniProt Q16678)
Construct: expressed in transfected cells
Assay: EROD assay in inducible CYP1B1 cell line
Assay type: cell-based
Settings: Table 1; read-out: CYP1B1 IC50
pIC50: −log10 of the molar value.
Assay Readout: pIC50

1. N#CCOc1ccc(/C=C/c2ccncn2)cc1: 8.31
2. N#CCOc1ccc(-c2nc(OCCCNC(=O)OCCOCCOCCOC(=O)NC34CC5CC(CC(C5)C3)C4)c3ccccc3n2)cc1: 9.92
3. N#CCOc1ccc(-c2nc(OCC#N)c3ccccc3n2)cc1: 10.62
4. COc1cc(/C=C/c2ccc(OC)cc2OC)cc(OC)c1 [TMS, reference compound]: 8.08
5. COc1ccc(/C=C/c2ccncn2)c(OC)c1: 7.12
